- PROTOCOL_TEXT: logP determination through HPLC (EEC directive 79/831 Annex V. A8, gradient method, acetonitrile/0.1% aqueous phosphoric acid)
- Type: physicochemical
- CONDITION_NOTES: Table 1, compounds of formula (I); HPLC gradient method, acetonitrile/0.1% aqueous phosphoric acid
MEASURE_NAME: logP

# example entries with known answers
• CC(Nc1c(-c2scnc2Cl)c(Cl)nc2nc(C3CC3)nn12)C(F)(F)F (centres unmarked) = 2.94
• CC(Nc1c(-c2ccsc2)c(Cl)nc2nc(C3CC3)nn12)C(F)(F)F (centres unmarked) = 3.29
• CC(C)c1nc2nc(Cl)c(-c3ncc(C(F)(F)F)cc3Cl)c(NC(C)C(C)C)n2n1 (centres unmarked) = 4.32

P: CC(C)c1nc2nc(Cl)c(-c3ncncc3Cl)c(NC(C)C(F)(F)F)n2n1 (centres unmarked)
Q: Clc1cc(-c2c(Cl)nc3nc(C4CC4)nn3c2N2CCCC2)c(Cl)s1
Query string: Which has the higher logP, P or Q ? Write the label of whichever entry you select.
Result string: Q

a: Cc1nc2nc(Cl)c(-c3ncncc3F)c(NC(C)C(C)C)n2n1 (centres unmarked)
b: CC(Nc1c(-c2ncccc2C(F)(F)F)c(Cl)nc2nc(C3CC3)nn12)C(C)(C)C (centres unmarked)
Query string: Of a and b , whose reported logP is the larger number? Could you answer with the label of the item you picked?
Result string: b
(b: 3.75, a: 2.21)

###

- PROTOCOL_TEXT: logP determination through HPLC (EEC directive 79/831 Annex V. A8, gradient method, acetonitrile/0.1% aqueous phosphoric acid)
- Format: physicochemical
- CONDITION_NOTES: Table 1, compounds of formula (I); HPLC gradient method, acetonitrile/0.1% aqueous phosphoric acid
MEASURE_NAME: logP

Some solved entries appear below for comparison.
* CC(Nc1c(-c2ccccn2)c(Cl)nc2nc(C3CC3)nn12)C(F)(F)F (centres unmarked) [Example 22] | 2.60
* CC(Nc1c(-c2ccccn2)c(Cl)nc2nc(C3CC3)nn12)C(C)(C)C (centres unmarked) | 3.09

I: Clc1cc(-c2c(Cl)nc3nc(C4CC4)nn3c2NC2CCCC2)c(Cl)s1
II: Cc1nc2nc(Cl)c(-c3ncccc3[N+](=O)[O-])c(NC(C)C(C)(C)C)n2n1 (centres unmarked)
Query string: Which value of logP is numerically greater: that of I or that of II ? Refer to your chosen entry by its label in the reply.
Result string: I
(I: 4.82, II: 2.60)

###

- PROTOCOL_TEXT: logP determination through HPLC (EEC directive 79/831 Annex V. A8, gradient method, acetonitrile/0.1% aqueous phosphoric acid)
- Assay type: physicochemical
- CONDITION_NOTES: Table 1, compounds of formula (I); HPLC gradient method, acetonitrile/0.1% aqueous phosphoric acid
MEASURE_NAME: logP

Answered examples (5):
• CC(C)c1nc2nc(Cl)c(-c3ncncc3Cl)c(NC(C)C(C)(C)C)n2n1 (stereo not drawn) = 3.67
• FC(F)(F)CNc1c(-c2cc(Cl)sc2Cl)c(Cl)nc2nc(C3CC3)nn12 = 3.85
• CC(C)c1nc2nc(Cl)c(-c3ncncc3Cl)c(NCC(F)(F)F)n2n1 = 2.56
• Clc1cc(-c2c(Cl)nc3nc(C4CC4)nn3c2N2CCOCC2)c(Cl)s1 = 3.68
• Cc1nc2nc(Cl)c(-c3ncccc3C)c(N3CCC(C)CC3)n2n1 = 3.09

P: C[C@H](Nc1c(-c2ncccc2[N+](=O)[O-])c(Cl)nc2nc(C3CC3)nn12)C(F)(F)F (single isomer, unassigned) [Example 16]
Q: CC(C)c1nc2nc(Cl)c(-c3ncc(C(F)(F)F)cc3Cl)c(NC(C)C(F)(F)F)n2n1 (stereo not drawn)
Query string: Compare logP: is it lower for P or for Q ? Reply briefly: the label of your chosen item.
Result string: P
(P: 2.64, Q: 3.95)
